Target: human TRPV3 (Homo sapiens (Human))
Sequence (Q8NET8 whole entry): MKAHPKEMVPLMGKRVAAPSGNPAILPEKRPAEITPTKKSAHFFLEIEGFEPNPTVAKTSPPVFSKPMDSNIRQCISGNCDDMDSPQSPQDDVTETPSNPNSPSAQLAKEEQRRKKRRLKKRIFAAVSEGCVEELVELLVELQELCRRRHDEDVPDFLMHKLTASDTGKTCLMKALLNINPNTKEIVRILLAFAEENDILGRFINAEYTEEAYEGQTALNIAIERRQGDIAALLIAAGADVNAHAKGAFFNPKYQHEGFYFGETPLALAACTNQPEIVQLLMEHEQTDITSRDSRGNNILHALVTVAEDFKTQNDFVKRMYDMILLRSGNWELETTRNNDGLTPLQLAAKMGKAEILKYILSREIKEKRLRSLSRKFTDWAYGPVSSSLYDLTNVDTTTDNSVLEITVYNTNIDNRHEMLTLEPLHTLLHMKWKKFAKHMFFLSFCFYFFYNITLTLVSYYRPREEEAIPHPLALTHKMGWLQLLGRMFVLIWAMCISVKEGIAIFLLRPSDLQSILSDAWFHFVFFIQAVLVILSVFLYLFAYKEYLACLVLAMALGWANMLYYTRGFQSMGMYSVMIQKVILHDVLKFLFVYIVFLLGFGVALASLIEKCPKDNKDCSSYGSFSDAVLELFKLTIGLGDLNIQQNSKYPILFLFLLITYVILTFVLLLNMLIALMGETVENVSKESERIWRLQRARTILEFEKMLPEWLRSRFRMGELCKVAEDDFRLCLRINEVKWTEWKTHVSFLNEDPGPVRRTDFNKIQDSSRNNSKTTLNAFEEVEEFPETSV
Assay: Radiometric calcium selectivity assay, CHO cells expressing human TRPV3 (2-aminoethoxydiphenyl borate)
Settings: read-out: IC50 values hTRPV3
Listed below: IC50 values for each entry.

[[record]]
compound = "Cn1c(=O)c2c(CC(=O)Nc3nc(-c4cc(F)c(OCC(F)(F)F)c(Cl)c4)cs3)coc2n(C)c1=O [Compound 60]"
measured_on = "human TRPV3 (Homo sapiens (Human))"
quantity_name = "IC50"
reported_result = "> 10000 nM"

[[record]]
compound = "Cn1c(=O)c2c(CC(=O)Nc3nc(-c4ccc(OC(F)(F)F)c(F)c4)cs3)nsc2n(C)c1=O [Compound 82]"
measured_on = "human TRPV3 (Homo sapiens (Human))"
quantity_name = "IC50"
reported_result = "> 1000 nM"

[[record]]
compound = "CCc1sc2c(c1CC(=O)Nc1nc(-c3cc(F)c(OCC(F)(F)F)c(F)c3)cs1)c(=O)n(C)c(=O)n2C [Compound 49]"
measured_on = "human TRPV3 (Homo sapiens (Human))"
quantity_name = "IC50"
reported_result = "> 10000 nM"

[[record]]
compound = "Cn1c(=O)c2c(CC(=O)Nc3nc(-c4ccc(C(F)(F)F)cc4F)cs3)nsc2n(C)c1=O [Compound 78]"
measured_on = "human TRPV3 (Homo sapiens (Human))"
quantity_name = "IC50"
reported_result = "> 1000 nM"


Enquiry: Output measured IC50 for this item: Cn1c(=O)c2c(CC(=O)Nc3nc(-c4ccc(F)c(C(F)(F)F)c4F)cs3)cccc2n(C)c1=O [Compound 31]
Return: > 10000 nM

Enquiry: Return the recorded IC50 value; entry: CCc1sc2c(c1CC(=O)Nc1nc(-c3ccc(C(F)(F)F)c(F)c3)cs1)c(=O)n(C)c(=O)n2C [Compound 50]
Return: > 1000 nM

Enquiry: Fill in IC50 for record Cn1c(=O)c2c(CC(=O)Nc3nc(-c4cc(Cl)ccc4F)cs3)cccc2n(C)c1=O [Compound 24]
Return: > 1000 nM
